Attribution: the supplement of paper PMC12669032

test system: Roseburia intestinalis; test: growth AUC relative to DMSO control (median of replicates) (fraction); higher = more growth (less inhibition), active = hit call of the paper; conditions: 20 µM; 24 h
MEASURED_ATTRIBUTE: growth AUC

INSERT INTO assay_data (molecule, system_name, recorded_measurement) VALUES
  ('O.O=C(Nc1ccc([N+](=O)[O-])cc1Cl)c1cc(Cl)ccc1O', 'Roseburia intestinalis', '0.869 (inactive)'),
  ('CCCCC(CC)CN1C(=O)C2C(C1=O)[C@H]1C=C[C@@H]2C1 (mixture of isomers)', 'Roseburia intestinalis', '1.07 (inactive)'),
  ('N[C@@H](Cc1cc(I)c(Oc2cc(I)c(O)c(I)c2)c(I)c1)C(=O)O', 'Roseburia intestinalis', '0.798 (inactive)'),
  ('CCOC(=O)C(C)Oc1ccc(Oc2nc3ccc(Cl)cc3o2)cc1 (racemic)', 'Roseburia intestinalis', '1.02 (inactive)'),
  ('CCc1cccc(C)c1NC(=O)C(=O)O', 'Roseburia intestinalis', '0.953 (inactive)'),
  ('O=[N+]([O-])c1ccc2c(c1)Cc1ccccc1-2', 'Roseburia intestinalis', '1.01 (inactive)'),
  ('CCc1nc2ncnn2c(N)c1CCCCCC(=O)O.Cl', 'Roseburia intestinalis', '0.955 (inactive)'),
  ('CC(CNC(=S)[S-])NC(=S)[S-].[Zn+2] (mixture of isomers)', 'Roseburia intestinalis', '0.979 (inactive)'),
  ('c1ccc2c(c1)Cc1ccccc1-2', 'Roseburia intestinalis', '1 (inactive)'),
  ('CC1=C(c2ccccc2)C(=O)N(C(C)(C)c2cc(Cl)cc(Cl)c2)CO1', 'Roseburia intestinalis', '1.03 (inactive)'),
  ('CCc1cccc(C)c1N(C(=O)C(=O)O)[C@@H](C)C(=O)O', 'Roseburia intestinalis', '0.973 (inactive)'),
  ('Nc1nc2ccccc2[nH]1', 'Roseburia intestinalis', '0.901 (inactive)'),
  ('CC(C)COC(=O)COc1cc(Cl)c(Cl)cc1Cl', 'Roseburia intestinalis', '1.01 (inactive)'),
  ('CC(C)(C)C(=O)C(Oc1ccc(Cl)cc1)n1ccnc1 (centres undefined)', 'Roseburia intestinalis', '0.9 (inactive)'),
  ('CNC(=O)Nc1nc2ccccc2s1', 'Roseburia intestinalis', '0.983 (inactive)'),
  ('[S]', 'Roseburia intestinalis', '0.952 (inactive)'),
  ('Nc1ccc(S(=O)(=O)Nc2cnc3ccccc3n2)cc1', 'Roseburia intestinalis', '0.991 (inactive)'),
  ('C[S+](C)CCC(=O)O.[Cl-]', 'Roseburia intestinalis', '1.01 (inactive)'),
  ('Br[C@@H]1CC[C@@H](Br)[C@@H](Br)CC[C@@H](Br)[C@@H](Br)CC[C@H]1Br', 'Roseburia intestinalis', '1 (inactive)');
